Data credit: patent US8956999B2

- Test system: Avena fatua (AVEFA)
- PROCEDURE SUMMARY: Example A pre-emergence herbicidal test, glasshouse
- Format: in vivo
- CONDITION NOTES: rate 250 g/ha, evaluated after 20 days, 100=total damage to plant, 0=no damage to plant
OUTCOME MEASURE: Pre-Emergence Activity AVEFA
Answer with a bare number; do not write a unit.

Request: Give the reported value of Pre-Emergence Activity AVEFA for this record: Cc1[se]c(-c2ccc(Cl)cc2)nc1C1C(=O)C(C)(C)OC(C)(C)C1=O
Response: 50

Request: Give the reported value of Pre-Emergence Activity AVEFA for this record: Cc1sc(-c2ccc(Cl)cc2)nc1C1C(=O)C(C)(C)OC(C)(C)C1=O
Response: 50

Request: Give the reported value of Pre-Emergence Activity AVEFA for this record: CCc1sc(-c2ccc(Cl)cc2)nc1C1C(=O)C(C)(C)OC(C)(C)C1=O
Response: 100

Request: Give the reported value of Pre-Emergence Activity AVEFA for this record: Cc1sc(-c2ccc(Cl)cc2)cc1C1C(=O)C(C)(C)OC(C)(C)C1=O
Response: 0

Request: Give the reported value of Pre-Emergence Activity AVEFA for this record: CCc1sc(-c2ccc(Cl)cc2)nc1C1C(=O)C(C)(C)C(=O)C(C)(C)C1=O
Response: 20

---

For each of the compounds below, state its pest or weed control at 1000 g/ha.
- System: Setaria faberi (SETFA)
- PROCEDURE SUMMARY: Example B post-emergence herbicidal test, glasshouse
- Format: in vivo
- CONDITION NOTES: 312 h, rate 1000 g/ha, evaluated after 13 days, read-out: Post-Emergence Activity SETFA (100=total damage to plant; 0=no damage to plant)
- Experimental: Seeds of a variety of test species were sown in standard soil in pots. […] After 13 days for pre and post-emergence, the test was evaluated (100=total damage to plant; 0=no damage to plant). […]
API: value field is a number in %; no unit string.

Request: Give the reported value of pest or weed control at 1000 g/ha for this record: CCc1sc(-c2ccc(Cl)cc2)nc1C1=C(OC(=O)C(C)(C)C)C(C)(C)OC(C)(C)C1=O [Compound P2]
Response: 100

Request: Give the reported value of pest or weed control at 1000 g/ha for this record: Cc1ocnc1C1C(=O)C(C)(C)C(=O)C(C)(C)C1=O [Compound T2]
Response: 0

Request: Give the reported value of pest or weed control at 1000 g/ha for this record: COC(=O)c1ccc(-c2cc(C3C(=O)C(C)(C)OC(C)(C)C3=O)c(C)s2)cc1 [Compound T20]
Response: 10

Request: Give the reported value of pest or weed control at 1000 g/ha for this record: Cc1sc(-c2ccc(Cl)c(C(F)(F)F)c2)nc1C1C(=O)C(C)(C)OC(C)(C)C1=O [Compound T15]
Response: 0

Request: Give the reported value of pest or weed control at 1000 g/ha for this record: Cc1sc(-c2ccc(F)cc2)nc1C1C(=O)C(C)(C)C(=O)C(C)(C)C1=O [Compound T8]
Response: 80

Request: Give the reported value of pest or weed control at 1000 g/ha for this record: CCc1sc(-c2ccc(Cl)cc2)nc1C1C(=O)C(C)(C)C(=O)C(C)(C)C1=O [Compound T6]
Response: 100

Request: Give the reported value of pest or weed control at 1000 g/ha for this record: Cc1sc(-c2cc(Cl)ccc2Cl)nc1C1C(=O)C(C)(C)C(=O)C(C)(C)C1=O [Compound T10]
Response: 80

Request: Give the reported value of pest or weed control at 1000 g/ha for this record: Cc1sc(-c2ccc(Cl)cc2)nc1C1C(=O)C(C)(C)C(=O)C(C)(C)C1=O [Compound T1]
Response: 90
